Tested on: K-562 leukemia
Experiment notes: NCI tumour cell line growth inhibition, 48 h; in the data active means GI50 below about 0.43 µM; inactive means the rest
Pick one: Yes (active), No (inactive)

Illustrative cases are given below, each with its answer.
Smiles code | Target or test system | Group label
COc1ccc2c(c1)C(=Nc1ccc(F)c(Cl)c1)c1c-2c(Nc2ccc(F)c(Cl)c2)nc2ccccc12 | K-562 leukemia | No
COC(=O)c1c[nH]c2cc(OC(C)C)c(OC(C)C)cc2c1=O | K-562 leukemia | No
O=C(Nc1ccncc1)C(=O)c1cn(S(=O)(=O)c2cccc(Cl)c2)c2ccccc12 | K-562 leukemia | No
Cn1c(CCCC(=O)O)nc2cc(N(CCCl)CCCl)ccc21 | K-562 leukemia | No
C#C[C@@]1(O)[C@@H](CO)O[C@@H](n2cc(Br)c3c(Cl)ccnc32)[C@@H]1O | K-562 leukemia | No
CCCCC(=O)N(c1ccc(Nc2c3ccccc3nc3cc([N+](=O)[O-])ccc23)cc1)S(C)(=O)=O | K-562 leukemia | No
C=C1c2nc3ccccc3n2C=C(c2cccc(Cl)c2)N1Cc1ccc(OC)cc1 | K-562 leukemia | Yes
O=C(Nc1nc(-c2ccc(Cl)cc2)cs1)c1cc(O)c(O)c(O)c1 | K-562 leukemia | No

**Query** For `C[C@@H](Nc1cc(F)cc(F)c1)c1cc(C(=O)N(C)C)cc2c(=O)cc(N3CCOCC3)oc12` , what call appears in the results of this test?
**Result** No

====

Test system: CAKI-1 renal
Experiment notes: NCI tumour cell line growth inhibition, 48 h
Assay metric: TGI

Illustrative cases are given below, each with its answer.
Compound | TGI
Cc1cc(=O)oc2c1cc1ccc3cccc4ccc2c1c34 | > 100 µM
C=C1N(S(=O)(=O)c2ccc(C)cc2)C(=O)OCC12CCCC2 | > 100 µM
CC(C)(C)[Si](C)(C)OCC1OC(n2cnc3c(=O)[nH]cnc32)CC1O (centres undefined) | > 100 µM
Cn1c(=O)c2ccccc2[n+]2c(-c3cccc([N+](=O)[O-])c3)csc12 | > 100 µM
CCOC(=O)c1cc(=O)n(C)c(=O)n1C | > 100 µM

**Query** Reported TGI for `Nc1nc(SCC(=O)c2ccccc2)c2[nH]cnc2n1` : what is it?
**Result** > 100 µM

**Query** Reported TGI for CC1(c2ccccc2)O[C@@H]2C[C@H]3[C@@H]4CCC5=CC(=O)C=C[C@]5(C)[C@@]4(F)[C@@H](O)C[C@]3(C)[C@]2(C(=O)CO)O1 (some centres undefined) : what is it?
**Result** 56 µM

**Query** Reported TGI for CCC12C=CCN(CCc3c([nH]c4ccccc34)/C=C\1)C2 (centres undefined) : what is it?
**Result** > 100 µM

**Query** Reported TGI for `Nc1ccccc1C#C/C=C\C#Cc1ccccc1C#CCO` : what is it?
**Result** 18 µM

**Query** Reported TGI for `CN1CCN(CCCNC(=O)c2c3c(n4ccccc24)C(=O)c2ncccc2C3=O)CC1` : what is it?
**Result** 46.3 µM

**Query** Reported TGI for `Brc1ccccc2cc(-c3ccccc3)nc1-2` : what is it?
**Result** 44.7 µM

**Query** Reported TGI for `CCc1nc(C)cn1C(=O)OCc1nc2nc(Cl)nc(N3CCOCC3)c2[nH]1` : what is it?
**Result** 1.71 µM

**Query** Reported TGI for `Cc1ccc2[nH]c3c(c(=O)n(C)c(=O)n3C)c2c1` : what is it?
**Result** > 100 µM

**Query** Reported TGI for COc1cc(OCc2ccccc2)c2c(CCC(=O)O)cc(=O)oc2c1 (tested in a mixture with another compound) : what is it?
**Result** > 100 µM

**Query** Reported TGI for C=C1C(=O)O[C@H](c2ccoc2)C[C@@H]1[C@@]1(C)CCCC2(C)C(=O)OCC21 (some centres undefined) : what is it?
**Result** > 100 µM

**Query** Reported TGI for `O=C(O)CCC(c1ccccc1)(c1ccccc1)c1ccccc1` : what is it?
**Result** > 100 µM

**Query** Reported TGI for C=C(C)C1CC[C@@](C)(O)[C@H](C#N)C1 (some centres undefined) : what is it?
**Result** > 100 µM

**Query** Reported TGI for `COc1ccc(Cn2cc(COc3cc(/C=C/C(=O)c4cc(OC)c(OC)c(OC)c4)ccc3OC)nn2)cc1` : what is it?
**Result** > 100 µM

**Query** Reported TGI for `Cc1c(C(=O)c2ccccc2)[n+](=O)c2cc(Cl)c(Cl)cc2n1[O-]` : what is it?
**Result** 14.1 µM

Data credit: PubChem BioAssay (NCI)
